# tested-on: human hNET (Homo sapiens, UniProt P23975)
# Construct: expressed in transfected cells; host or cells: MDCK-Net6 (MDCK cells stably transfected with hNET)
# Sequence (P23975 whole entry): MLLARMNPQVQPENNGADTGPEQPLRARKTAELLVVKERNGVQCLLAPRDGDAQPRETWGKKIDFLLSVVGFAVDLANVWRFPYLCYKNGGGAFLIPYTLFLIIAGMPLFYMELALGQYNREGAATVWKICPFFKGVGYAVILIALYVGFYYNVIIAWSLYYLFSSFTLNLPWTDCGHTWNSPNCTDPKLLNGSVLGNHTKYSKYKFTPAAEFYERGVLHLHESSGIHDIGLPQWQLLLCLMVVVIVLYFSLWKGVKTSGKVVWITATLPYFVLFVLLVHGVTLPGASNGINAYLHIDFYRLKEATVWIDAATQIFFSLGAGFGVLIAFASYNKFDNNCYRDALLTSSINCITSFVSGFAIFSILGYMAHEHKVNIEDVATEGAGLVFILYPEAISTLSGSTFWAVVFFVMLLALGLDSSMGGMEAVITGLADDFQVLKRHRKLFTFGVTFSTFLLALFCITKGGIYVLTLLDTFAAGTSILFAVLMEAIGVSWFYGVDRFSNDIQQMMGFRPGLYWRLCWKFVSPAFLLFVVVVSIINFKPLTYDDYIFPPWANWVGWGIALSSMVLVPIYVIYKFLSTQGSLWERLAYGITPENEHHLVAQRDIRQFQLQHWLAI
# protocol-summary: Functional norepinephrine reuptake assay, Procedure B (6,000 cells/well)
# Format: cell-based
# measurement-parameters: MDCK-Net6 cells, 6,000 cells/well, 16 nM 3H-norepinephrine; read-out: Procedure B hNET uptake IC50
Structures can show the parent of a compound that is named as a salt.
Response field class: enum, chosen by comparing IC50 against bucket 1 = under 100 nM, bucket 2 = from 100 nM up to 600 nM, bucket 3 = 600 nM and over

Completed entries (count: 8):
compound | discrete-label
CNCCCC1Oc2cc(F)ccc2N(c2ccccc2F)S1(=O)=O (centres unmarked) [Example 129, hydrochloride] | bucket 1
CNCCCC1Oc2ccc(C)cc2N(c2ccccc2)S1(=O)=O (centres unmarked) [Example 50] | bucket 2
CNCCCC1Oc2cccc(F)c2N(c2ccccc2)S1(=O)=O (centres unmarked) [Example 48] | bucket 3
O=S1(=O)C(CN2CCNCC2)Oc2ccccc2N1c1ccccc1 (centres unmarked) [Example 135] | bucket 2
CNCCCC1Oc2cc3ccccc3cc2N(c2ccccc2)S1(=O)=O (centres unmarked) [Example 55, hydrochloride] | bucket 1
CNCCC[C@H]1Oc2ccccc2N(c2ccccc2)S1(=O)=O (single isomer, unassigned) [Example 13] | bucket 1
CNCCCC1Oc2c(F)cccc2N(c2ccccc2)S1(=O)=O (centres unmarked) [Example 47] | bucket 2
CC1CN(CC2Oc3ccccc3N(c3ccccc3)S2(=O)=O)CC(C)N1 (centres unmarked) [Example 142] | bucket 3

Category of CNCCCC1Oc2ccccc2N(c2cccc(F)c2)S1(=O)=O (centres unmarked) [Example 20] , please.
bucket 2

Category of O=S1(=O)C(CCCN2CCNCC2)Oc2ccccc2N1c1ccccc1 (centres unmarked) [Example 76, Dihydrochloride] , please.
bucket 3

Category of CNCCCC1Oc2ccccc2N(c2cc(C)cc(C)c2)S1(=O)=O (centres unmarked) [Example 22] , please.
bucket 3

Category of CNCCC[C@H]1Cc2ccccc2N(c2ccccn2)S1(=O)=O (single isomer, unassigned) [Example 127] , please.
bucket 3

Category of CNCCC[C@H]1Cc2cc(F)ccc2N(c2ccc(F)cc2C)S1(=O)=O (single isomer, unassigned) [Example 170] , please.
bucket 2

====

Measured IC50 accompanies every entry in the list below.
# tested-on: human hNET (Homo sapiens, UniProt P23975)
# Construct: expressed in transfected cells; host or cells: MDCK-Net6 (MDCK cells stably transfected with hNET)
# protocol-summary: Functional norepinephrine reuptake assay, Procedure B (6,000 cells/well)
# Type: cell-based
# measurement-parameters: MDCK-Net6 cells, 6,000 cells/well, 16 nM 3H-norepinephrine; read-out: Procedure B hNET uptake IC50
Counter-ions that a name gives are not always drawn.
Reply numerically in nM, unit not repeated.

Known results for molecules:
molecule | tested-on | IC50 [nM]
CNCCC[C@@H]1Oc2ccccc2N(c2ccccc2)S1(=O)=O (single isomer, unassigned) | human hNET (Homo sapiens, UniProt P23975) | 23.9
CN(CCCC1Oc2ccccc2N(c2ccccc2)S1(=O)=O)C1CCCCC1 (stereo not drawn) [Example 85, Hydrochloride] | human hNET (Homo sapiens, UniProt P23975) | 1920

// below: IC50 requested for another molecule
molecule O=S1(=O)C(CN2CC3CC2CN3)Oc2ccccc2N1c1ccccc1 (stereo not drawn) , IC50 observed: 231

====

# tested-on: human hNET (Homo sapiens, UniProt P23975)
# Construct: expressed in transfected cells; host or cells: MDCK-Net6 (MDCK cells stably transfected with hNET)
# protocol-summary: Functional norepinephrine reuptake assay, Procedure B (6,000 cells/well)
# Type: cell-based
# measurement-parameters: MDCK-Net6 cells, 6,000 cells/well, 16 nM 3H-norepinephrine; read-out: Procedure B hNET uptake IC50
Measured pIC50 accompanies every entry in the list below.
To interpret pIC50, take it as minus log10 of a concentration measured in moles per litre.

compound | recorded-measurement
CNCCCC1Oc2cc(Cl)ccc2N(c2ccccc2)S1(=O)=O (stereo not shown) | 6.94
CNCCC[C@H]1Cc2cc(F)ccc2N(c2cccc(F)c2F)S1(=O)=O (single isomer, unassigned) | 7.18
CNCCCC1Cc2cc(F)ccc2N(c2ccccc2F)S1(=O)=O (stereo not shown) | 7.62

compound CNCCC[C@H]1Cc2ccccc2N(c2ccccc2)S1(=O)=O (single isomer, unassigned) , pIC50 observed: 7.02

compound CNCCC[C@@H]1Cc2cc(F)ccc2N(c2cccc(F)c2F)S1(=O)=O (single isomer, unassigned) , pIC50 observed: 7.47

====

# tested-on: human hNET (Homo sapiens, UniProt P23975)
# Construct: expressed in transfected cells; host or cells: MDCK-Net6 (MDCK cells stably transfected with hNET)
# protocol-summary: Functional norepinephrine reuptake assay, Procedure B (6,000 cells/well)
# Format: cell-based
# measurement-parameters: MDCK-Net6 cells, 6,000 cells/well, 16 nM 3H-norepinephrine; read-out: Procedure B hNET uptake IC50
Where a name gives a salt, the structure may show the parent alone.
property-name: log10 IC50 (log10 of the value in nM)
Note: values are log10 of IC50 expressed in nM.

Known results for compounds:
compound | log10 IC50
CNCCC[C@@H]1Cc2cc(F)ccc2N(c2ccccc2C#N)S1(=O)=O (single isomer, unassigned) | 2.31
CNCCC[C@@H]1Cc2ccccc2N(c2ccccn2)S1(=O)=O (single isomer, unassigned) | 1.95
CC(C)CNCCC1Oc2ccccc2N(c2ccccc2)S1(=O)=O (centres unmarked) | 3.25
CNCCC1Oc2ccccc2N(c2ccccc2)S1(=O)=O (centres unmarked) | 2.21
CNCCCC1Oc2cc3ccccc3cc2N(c2cccc(F)c2)S1(=O)=O (centres unmarked) [Example 70, Hydrochloride] | 2.08

The value of log10 IC50 recorded for CNCC[C@@H](O)[C@@H]1Cc2ccccc2N(c2ccccc2)S1(=O)=O (single isomer, unassigned) when tested on human hNET (Homo sapiens, UniProt P23975) reads 2.74

The value of log10 IC50 recorded for CNCCCC1Oc2cc3ccccc3cc2N(c2ccc(C)cc2)S1(=O)=O (centres unmarked) [Example 69, Hydrochloride] when tested on human hNET (Homo sapiens, UniProt P23975) reads 2.87

The value of log10 IC50 recorded for CNCCCC1Oc2ccc(-c3ccccc3)cc2N(c2ccccc2)S1(=O)=O (centres unmarked) when tested on human hNET (Homo sapiens, UniProt P23975) reads 2.61

====

# tested-on: human hNET (Homo sapiens, UniProt P23975)
# Construct: expressed in transfected cells; host or cells: MDCK-Net6 (MDCK cells stably transfected with hNET)
# protocol-summary: Functional norepinephrine reuptake assay, Procedure B (6,000 cells/well)
# Type: cell-based
# measurement-parameters: MDCK-Net6 cells, 6,000 cells/well, 16 nM 3H-norepinephrine; read-out: Procedure B hNET uptake IC50
Where a name gives a salt, the structure may show the parent alone.
property-name: log10(IC50) (log10 of the value in nM)
Note: values are log10 of IC50 expressed in nM.

compound | log10(IC50)
CNCCC[C@@H]1Cc2ccccc2N(c2ccccc2F)S1(=O)=O (single isomer, unassigned) [Example 91] | 0.60

The value of log10(IC50) recorded for CNCCCC1Sc2ccccc2N(c2ccc(C)cc2)S1(=O)=O (stereo not drawn) [Example 63, Hydrochloride] when tested on human hNET (Homo sapiens, UniProt P23975) reads 2.19

The value of log10(IC50) recorded for CCNCCCC1Oc2ccccc2N(c2ccccc2)S1(=O)=O (stereo not drawn) when tested on human hNET (Homo sapiens, UniProt P23975) reads 3.41

The value of log10(IC50) recorded for C=C(CNC)CC1Cc2ccccc2N(c2ccccc2)S1(=O)=O (stereo not drawn) when tested on human hNET (Homo sapiens, UniProt P23975) reads 1.20

The value of log10(IC50) recorded for CNCCCC1Oc2ccccc2N(c2cccnc2)S1(=O)=O (stereo not drawn) when tested on human hNET (Homo sapiens, UniProt P23975) reads 2.54

The value of log10(IC50) recorded for CNCCCC1Oc2cc(F)ccc2N(c2ccccc2)S1(=O)=O (stereo not drawn) when tested on human hNET (Homo sapiens, UniProt P23975) reads 1.97

The value of log10(IC50) recorded for CNCCCC1Oc2ccccc2N(c2ccccc2)S1(=O)=O (stereo not drawn) when tested on human hNET (Homo sapiens, UniProt P23975) reads -0.15

The value of log10(IC50) recorded for CNCC[C@H](O)[C@H]1Cc2ccccc2N(c2ccccc2)S1(=O)=O (single isomer, unassigned) when tested on human hNET (Homo sapiens, UniProt P23975) reads 1.90

The value of log10(IC50) recorded for CNCCCC1Oc2cc(OC)ccc2N(c2ccccc2)S1(=O)=O (stereo not drawn) when tested on human hNET (Homo sapiens, UniProt P23975) reads 2.78
